- RUN_DESCRIPTION: protein stability index of a GFP-peptide fusion (yeast GPS) (PSI 1-4); higher = more stable; sorted into four equal gates, so the index is relative within each strain
- ASSAY_CONTEXT: ubr1∆
Would you mind telling me the reported protein stability index of each entry?

Example sequences with recorded protein stability index:
[
  {
    "BIOSEQUENCE": "EERFSELFKGYLADDID [RPL5]",
    "MEASURED_ENDPOINT": "protein stability index",
    "VALUE": 3.01
  },
  {
    "BIOSEQUENCE": "FNIISMTLKEMYQMITM [SMC4]",
    "MEASURED_ENDPOINT": "protein stability index",
    "VALUE": 2.15
  },
  {
    "BIOSEQUENCE": "EGQIIQRSNISTAIKSL [CDC53]",
    "MEASURED_ENDPOINT": "protein stability index",
    "VALUE": 1.79
  }
]

# ---- query sequence ----
Incoming: What value of measured protein stability index is listed for ETITTKRVPNPNFLGNC [SWP82] ?
Outgoing: 2.32

###

- RUN_DESCRIPTION: protein stability index of a GFP-peptide fusion (yeast GPS) (PSI 1-4); higher = more stable; sorted into four equal gates, so the index is relative within each strain
- ASSAY_CONTEXT: san1∆
Would you mind telling me the reported protein stability index of each entry?
One number for each entry.

Example sequences with recorded protein stability index:
[
  {
    "BIOSEQUENCE": "IQRTRERKKSIGSQRGR [DSN1]",
    "VALUE": 2.56
  },
  {
    "BIOSEQUENCE": "FDQAGKKVSRRNARATR [RPL13A]",
    "VALUE": 1.92
  },
  {
    "BIOSEQUENCE": "LKQHNQNNLPPNFFLTL [BRR2]",
    "VALUE": 2.84
  },
  {
    "BIOSEQUENCE": "TIISPHKDIPEEDFYTV [DSN1]",
    "VALUE": 2.44
  },
  {
    "BIOSEQUENCE": "DEPDEQGNPKKRPGKLS [CYT1]",
    "VALUE": 3.24
  },
  {
    "BIOSEQUENCE": "EALAFTSLVANENDKIY [YDL116W/NUP84]",
    "VALUE": 2.02
  },
  {
    "BIOSEQUENCE": "RGFGKINKQRVPLSDNA [RPL7A]",
    "VALUE": 3.29
  },
  {
    "BIOSEQUENCE": "DDRYGYQLYTSNPSGNY [PRE9]",
    "VALUE": 3.06
  },
  {
    "BIOSEQUENCE": "SDPESERPAIEFETPTF [RPN14]",
    "VALUE": 3.02
  },
  {
    "BIOSEQUENCE": "YISAELYAQLRENGLVP [SNU114]",
    "VALUE": 2.48
  }
]

Report protein stability index for each item below.
1. ASPHASVRTAVFSALKN [ECM29]
2. SYLISHKDSFYDRATLT [RPO31]
3. VKSLRQGKSKLIIIAAN [RPL30]
4. FHSEISPDSTVNRSVVV [YAR002W/NUP60]
5. RLISQSLLASKSTYRTP [RIP1]
6. AEQEKAKNIISNVLDGN [LRP1]
7. VVDFTSLPEELKKRYDL [YMR129W/POM152]
8. KPAFSFGAKSDEKKDSD [YJL041W/NSP1]

Outgoing:
[1.25, 2.21, 1.62, 1.76, 2.82, 2.63, 2.96, 3.21]

Report protein stability index for each item below.
1. EQLSPQDVLQMLGRAGR [BRR2]
2. LAYSKIVNGQTFSYVDS [YMR129W/POM152]
3. QDGVLLVALSNEPAARL [FAS2]
4. EFMAGFNIISMTLKEMY [SMC4]
5. LVSNPHEIYGSMPLEQL [SRB4]
6. LPFQRLVREIAQDFKTD [HHT1]
7. TSAKEPSENDVFYRMQQ [RPO31]

Outgoing:
1: 3.48; 2: 2.53; 3: 2.68; 4: 3.21; 5: 3.1; 6: 2.48; 7: 3.13

Report protein stability index for each item below.
1. LEILIVTKDGVRKEFYE [PRE7]
2. RLAKKPSMKKIKIEPSA [SIR3]
3. PQPLFMEDPPSTVSGEL [YMR153W/NUP53]
4. QNRSLQEHNIQDSNVMP [SNF2]
5. GTLDKNSQTVSGTPITQ [SNF2]
6. VSMITDHNALPQRCTFA [POP1]
7. MLMPKQERNKIHQYLFQ [RPS10B]

Outgoing:
1: 3.14; 2: 2.76; 3: 3.58; 4: 2.92; 5: 2.69; 6: 2.3; 7: 2.89
